- target: human DLK (Homo sapiens, UniProt Q12852)
- protocol: DLK Kd Determinations (KINOMEscan KdELECT, DiscoveRx)
- test.settings: fusion protein of full length human DLK (amino acids 1-859) and NFkB DNA binding domain; qPCR readout; duplicate
pKd: −log10 of the molar value.
measured.quantity: pKd

Here are 2 compounds together with their reported answers.
[
  {
    "smiles.entry": "Nc1ncc(-c2cn([C@H]3[C@@H]4CN(CCF)C[C@@H]43)c(CC(F)(F)F)n2)cc1C(F)(F)F",
    "target": "human DLK (Homo sapiens, UniProt Q12852)",
    "pKd": 7.19
  },
  {
    "smiles.entry": "Nc1ncc(-c2cn([C@H]3[C@@H]4CNC[C@@H]43)c(C3CC3)n2)cc1C(F)(F)F",
    "target": "human DLK (Homo sapiens, UniProt Q12852)",
    "pKd": 7.06
  }
]

A = Nc1ncc(-c2cn([C@H]3[C@@H]4CN(C5COC5)C[C@@H]43)c(C3CC3)n2)cc1OC(F)(F)F
B = Nc1ncc(-c2cn([C@H]3[C@@H]4CN(C5CCOCC5)C[C@@H]43)c(CC3CC3)n2)cc1C(F)(F)F
## Task Field: lower recorded pKd (choose A or B ) // return label of chosen record
## Result B
(B: 7.29, A: 7.49)

---

- target: human DLK (Homo sapiens, UniProt Q12852)
- protocol: Phospho-cJun Cellular Assay
- test.settings: HEK293 cells stably transfected with Dox-inducible human DLK; p-cJun (Ser63); 5 h compound incubation
measured.quantity: IC50 (µM)

[
  {
    "compound": "Nc1ncc(-c2cn([C@H]3[C@@H]4CC(N5CCCOCC5)C[C@@H]43)c(C3CC3)n2)cc1C(F)(F)F (single isomer, unassigned) [Example 141b]",
    "target": "human DLK (Homo sapiens, UniProt Q12852)",
    "measured.quantity": "IC50",
    "endpoint.result": 0.587
  },
  {
    "compound": "CC(C)c1nc(-c2cnc(N)c(OC(F)F)c2)cn1[C@H]1[C@@H]2CC(N3CCN(C)CC3)C[C@@H]21 (single isomer, unassigned) [Example 145b]",
    "target": "human DLK (Homo sapiens, UniProt Q12852)",
    "measured.quantity": "IC50",
    "endpoint.result": 0.889
  },
  {
    "compound": "Nc1ncc(-c2cn([C@H]3[C@@H]4CC(N5CCOCC5)C[C@@H]43)c(C3CC3)n2)cc1C(F)(F)F (single isomer, unassigned) [Example 128a]",
    "target": "human DLK (Homo sapiens, UniProt Q12852)",
    "measured.quantity": "IC50",
    "endpoint.result": 0.748
  }
]

---

- target: human DLK (Homo sapiens)
- protocol: Phospho-cJun Cellular Assay
- test.settings: HEK293 cells stably transfected with Dox-inducible human DLK; p-cJun (Ser63); 5 h compound incubation
pIC50: −log10 of the molar value.
measured.quantity: pIC50

The examples below pair each entry with its known result.
[
  {
    "compound": "CN1CCN(C2CC3C(C2)C3n2cc(-c3cnc(N)c(OC(F)F)c3)nc2C2CC2)CC1 (stereo not drawn)",
    "endpoint.result": 6.15
  },
  {
    "compound": "CN1CCN(C2C[C@@H]3[C@H](C2)[C@H]3n2cc(-c3cnc(N)c(C(F)(F)F)c3)nc2CC2CC2)CC1 (single isomer, unassigned) [Example 161b]",
    "endpoint.result": 6.20
  },
  {
    "compound": "Nc1ncc(-c2cn([C@H]3[C@@H]4CC(N5CCN(CCF)CC5)C[C@@H]43)c(C3CC3)n2)cc1C(F)(F)F (single isomer, unassigned) [Example 153b]",
    "endpoint.result": 6.09
  },
  {
    "compound": "Nc1ncc(-c2cn([C@H]3[C@@H]4CC(N5CCOCC5)C[C@@H]43)c(CC3CC3)n2)cc1C(F)(F)F (single isomer, unassigned) [Example 138a]",
    "endpoint.result": 6.00
  },
  {
    "compound": "Nc1ncc(-c2cn([C@H]3[C@@H]4CN(C5COC5)C[C@@H]43)c(C3CC3)n2)cc1C(F)(F)F",
    "endpoint.result": 5.92
  },
  {
    "compound": "Nc1ncc(-c2cn([C@H]3[C@@H]4CNC[C@@H]43)c(CC3CC3)n2)cc1OC(F)(F)F",
    "endpoint.result": 5.95
  },
  {
    "compound": "Nc1ncc(-c2cn([C@H]3[C@@H]4CC(N5CCOCC5)C[C@@H]43)c(C3CC3)n2)cc1C(F)(F)F (single isomer, unassigned) [Example 128b]",
    "endpoint.result": 6.12
  },
  {
    "compound": "CC(C)(C)Cc1nc(-c2cnc(N)c(C(F)(F)F)c2)cn1[C@H]1[C@@H]2CN(CCF)C[C@@H]21",
    "endpoint.result": 6.23
  },
  {
    "compound": "CC(C)c1nc(-c2cnc(N)c(C(F)(F)F)c2)cn1[C@H]1[C@@H]2CC(N3CCCOCC3)C[C@@H]21 (stereo partly drawn) [Example 142]",
    "endpoint.result": 6.03
  },
  {
    "compound": "CC(C)c1nc(-c2cnc(N)c(C(F)(F)F)c2)cn1[C@H]1[C@@H]2CC(N3CCOCC3)C[C@@H]21 (single isomer, unassigned) [Example 127b]",
    "endpoint.result": 6.20
  }
]

P = Nc1ncc(-c2cn([C@H]3[C@@H]4CC(N5CCCOCC5)C[C@@H]43)c(C3CC3)n2)cc1OC(F)(F)F (stereo partly drawn) [Example 149]
Q = CC(C)c1nc(-c2cnc(N)c(OC(F)(F)F)c2)cn1[C@H]1[C@@H]2CC(N3CCCOCC3)C[C@@H]21 (single isomer, unassigned) [Example 20b]
R = CC(C)c1nc(-c2cnc(N)c(C(F)(F)F)c2)cn1[C@H]1[C@@H]2CC(N3CCCOCC3)C[C@@H]21 (stereo partly drawn) [Example 130]
## Task Could you please order the items by pIC50, going from the lowest number to the highest? Answer by writing out the labels in the requested order.
## Result R, Q, P
(R: 5.75, Q: 5.98, P: 6.24)

a = COCCN1C[C@@H]2[C@H](C1)[C@H]2n1cc(-c2cnc(N)c(C(F)(F)F)c2)nc1CC(F)(F)F
b = COCCN1C[C@@H]2[C@H](C1)[C@H]2n1cc(-c2cnc(N)c(C(F)(F)F)c2)nc1CC1CC1
## Task Field: lower pIC50 | Options: a / b API: response body contains the label of the selected item.
## Result a

---

- target: human DLK (Homo sapiens, UniProt Q12852)
- Sequence (Q12852 1-859): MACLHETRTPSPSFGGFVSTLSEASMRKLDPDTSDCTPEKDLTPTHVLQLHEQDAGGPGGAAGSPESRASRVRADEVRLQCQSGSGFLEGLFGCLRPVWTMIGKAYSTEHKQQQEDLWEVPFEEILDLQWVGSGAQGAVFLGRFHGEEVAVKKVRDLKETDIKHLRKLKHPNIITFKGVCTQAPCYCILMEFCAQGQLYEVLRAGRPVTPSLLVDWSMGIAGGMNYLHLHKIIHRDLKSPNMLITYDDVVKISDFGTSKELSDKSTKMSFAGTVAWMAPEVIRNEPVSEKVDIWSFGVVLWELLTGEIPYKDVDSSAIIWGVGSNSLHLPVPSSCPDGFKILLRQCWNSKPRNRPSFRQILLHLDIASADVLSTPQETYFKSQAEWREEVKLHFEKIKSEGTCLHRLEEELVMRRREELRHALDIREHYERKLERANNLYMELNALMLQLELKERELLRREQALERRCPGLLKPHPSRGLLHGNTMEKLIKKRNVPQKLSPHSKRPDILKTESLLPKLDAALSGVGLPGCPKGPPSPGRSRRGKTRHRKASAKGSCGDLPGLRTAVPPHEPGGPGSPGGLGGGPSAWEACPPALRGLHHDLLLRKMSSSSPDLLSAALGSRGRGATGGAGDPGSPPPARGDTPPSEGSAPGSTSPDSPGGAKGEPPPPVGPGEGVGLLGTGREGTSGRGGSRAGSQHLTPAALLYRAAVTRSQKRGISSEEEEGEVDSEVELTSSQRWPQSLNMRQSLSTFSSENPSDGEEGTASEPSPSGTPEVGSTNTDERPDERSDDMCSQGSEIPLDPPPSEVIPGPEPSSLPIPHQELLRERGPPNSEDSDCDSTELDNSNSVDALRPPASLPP
- protocol: DLK Kd Determinations (KINOMEscan KdELECT, DiscoveRx)
- test.settings: fusion protein of full length human DLK (amino acids 1-859) and NFkB DNA binding domain; qPCR readout; duplicate
measured.quantity: Kd (nM)

Examples with their reported Kd follow.
[
  {
    "compound": "Nc1ncc(-c2cn([C@H]3[C@@H]4CN(C5COC5)C[C@@H]43)c(C3CCC3)n2)cc1OC(F)F [Example 57]",
    "Kd (nM)": 180
  },
  {
    "compound": "CC(C)c1nc(-c2cnc(N)c(C(F)(F)F)c2)cn1[C@H]1[C@@H]2CN(CC(F)(F)F)C[C@@H]21 [Example 18]",
    "Kd (nM)": 720
  },
  {
    "compound": "CC(C)c1nc(-c2cnc(N)c(OC(F)(F)F)c2)cn1[C@H]1[C@@H]2CC(N3CCN(CCF)CC3)C[C@@H]21 (single isomer, unassigned) [Example 156b]",
    "Kd (nM)": 11
  },
  {
    "compound": "Nc1ncc(-c2cn([C@H]3[C@@H]4CN(C5CCOCC5)C[C@@H]43)c(C3CC3)n2)cc1OC(F)F [Example 105]",
    "Kd (nM)": 79
  },
  {
    "compound": "CC(C)n1cc(-c2cnc(N)c(C(F)(F)F)c2)nc1C1CC1 [Example 8]",
    "Kd (nM)": 130
  }
]

P = Nc1ncc(-c2cn([C@H]3[C@@H]4CN(C5CCOCC5)C[C@@H]43)c(C3CC3)n2)cc1C(F)(F)F [Example 74]
Q = Nc1ncc(-c2cn([C@H]3[C@@H]4CN(CC(F)F)C[C@@H]43)c(CC3CC3)n2)cc1OC(F)F [Example 89]
## Task Between these two entries, P and Q , state which has the higher Kd. // caller expects the label of the chosen entry
## Result Q
(Q: 290 nM, P: 54 nM)

a = CC(C)c1nc(-c2cnc(N)c(C(F)(F)F)c2)cn1[C@H]1[C@@H]2CC(N3CCOC[C@@H]3C)C[C@@H]21 (stereo partly shown) [Example 131]
b = CC(=O)N1C[C@@H]2[C@H](C1)[C@H]2n1cc(-c2cnc(N)c(OC(F)F)c2)nc1C1CC1 [Example 118]
## Task // which entry has the larger Kd value, a or b ? Provide the label of your selected option as the answer.
## Result b
